These measurements were taken from ChEMBL document CHEMBL3774368.

Target: Muscarinic acetylcholine receptor M1 (Homo sapiens, UniProt P11229)
Sequence (P11229 whole entry): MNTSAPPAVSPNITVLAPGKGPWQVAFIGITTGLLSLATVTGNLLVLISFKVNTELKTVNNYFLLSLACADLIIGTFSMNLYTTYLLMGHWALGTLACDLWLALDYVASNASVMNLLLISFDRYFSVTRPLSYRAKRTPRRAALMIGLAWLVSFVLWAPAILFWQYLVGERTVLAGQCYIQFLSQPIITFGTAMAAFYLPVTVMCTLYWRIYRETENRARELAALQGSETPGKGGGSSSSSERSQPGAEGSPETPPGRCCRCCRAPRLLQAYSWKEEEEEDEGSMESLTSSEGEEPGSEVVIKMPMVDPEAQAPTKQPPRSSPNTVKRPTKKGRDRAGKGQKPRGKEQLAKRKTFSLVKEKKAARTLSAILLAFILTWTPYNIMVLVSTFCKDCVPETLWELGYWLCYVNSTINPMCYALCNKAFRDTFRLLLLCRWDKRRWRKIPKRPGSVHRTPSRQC
Experiment: Antagonist activity at recombinant human muscarinic M1 receptor expressed in CHO-K1 cells assessed as inhibition of acetylcholine induced calcium mobilization preincubated for 10 mins followed by acetylcholine addition measured after 1 hr by fluo-4 AM dye-based FLIPR assay
pKi: −log10 of the molar value.
READOUT_KIND: pKi

COMPOUND: Cn1c(SCCCN2CC3CCN(c4ccccc4)C3C2)nnc1C1CCOCC1 (stereo in doubt; 62a)
pKi: 5.99

P: Cc1ncoc1-c1nnc(SCCCN2CC3CCN(c4ccccc4)C3C2)n1C (stereo in doubt; 6b)
Q: Cn1c(SCCCN2CC3CCN(c4ccc(C(F)(F)F)cc4)C3C2)nnc1-c1cc[nH]c(=O)c1 (stereo in doubt; 55b)
R: Cc1ncoc1-c1nnc(SCCCN2CC3CCN(c4ccc(C(F)(F)F)cc4F)C3C2)n1C (stereo in doubt; 8b)
S: Cn1c(SCCCN2CC3CCN(c4ccc(C(F)(F)F)cc4)C3C2)nnc1-c1ccc(=O)n(C)c1 (stereo in doubt; 57b)
T: Cn1c(SCCCN2CC3CCN(c4ccccc4C(F)(F)F)C3C2)nnc1-c1cccnc1 (stereo in doubt; 52a)
Order by pKi, ascending. List the labels according to the requested ordering. Q, P, T, S, R
